From: patent US6350731

STUDY SYSTEM: Rb 112
MEASUREMENT PROTOCOL: competitive ELISA on antiserum Rb 112; coated antigen not given
Where no end group is shown, it is not given here.
In this section we review reported IC50 values for a set of binders.
# output: bare number, implied unit nM

1. Ac-ISRRLIDRTNANFLC (not fully specified; printed as Ac-25I-S-R-R-L-I-D-R-T-N-A-N-F-L38-C) [GP4] | 2

Let us examine a further case.
Prompt line: Consider the binder shown here: Ac-ISRRLIDRTNANFLVWPPC [GP10] What is its recorded IC50?
Response line: 3
